Recorded melting point by entry
Structures can show the parent of a compound that is named as a salt.

Answered cases to consult:
>>> value("CCCCCCCCNC(=O)N1CCC(Nc2ccc(CCNC[C@H](O)COc3ccc(NS(C)(=O)=O)cc3)cc2)CC1")
"89 to 95 °C"
>>> value("COc1c(C(=O)N2CCC(Nc3ccc(CCNC[C@H](O)COc4ccc(O)cc4)cc3)CC2)sc2ccccc12 (as salt: salt)")
"84 to 86 °C"

Query :: Fill in: melting point of C=CCc1ccccc1OC[C@@H](O)CNCCc1ccc(NC2CCN(S(=O)(=O)c3ccc(N(CCCCCC)C(N)=O)cc3)CC2)cc1 is ___
Result :: 68 to 70 °C

---

Molecular target: human β3-adrenergic receptor (Homo sapiens)
Construct: Full length β3 AR clones (402 amino acids) containing the last 6 amino acids of hβ3—AR are prepared; expressed in transfected cells; host or cells: CHO cells
Sequence (P13945 whole entry): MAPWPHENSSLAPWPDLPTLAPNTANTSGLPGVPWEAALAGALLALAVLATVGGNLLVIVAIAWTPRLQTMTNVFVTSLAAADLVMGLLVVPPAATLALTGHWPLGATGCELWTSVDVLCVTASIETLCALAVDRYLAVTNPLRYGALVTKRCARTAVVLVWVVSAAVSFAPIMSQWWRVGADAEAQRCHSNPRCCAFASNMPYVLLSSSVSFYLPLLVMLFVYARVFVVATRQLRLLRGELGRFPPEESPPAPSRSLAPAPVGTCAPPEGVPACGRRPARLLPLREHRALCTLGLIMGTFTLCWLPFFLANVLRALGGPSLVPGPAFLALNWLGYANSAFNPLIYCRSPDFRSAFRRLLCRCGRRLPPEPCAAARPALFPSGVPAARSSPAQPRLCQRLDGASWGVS
Test: cAMP response (SPA kit) in CHO cells transfected with human β3 adrenergic receptor
Type: cell-based
Settings: CHO cells expressing human β3-AR; 10^-9 M to 10^-5 M; 30 min at 37° C.; cAMP by SPA; read-out: EC50(β3)
pEC50: −log10 of the molar value.
Would you mind labelling by pEC50? At or over 7 is yes, under is no.

Worked examples follow.
>>> class_assignment("Cc1ccsc1C(=O)N1CCC(Nc2ccc(CCNC[C@H](O)COc3cccc4[nH]c(=O)[nH]c34)cc2)CC1")
"yes"
>>> class_assignment("O=C(c1cc2cc(Br)ccc2[nH]1)N1CCC(Nc2ccc(CCNC[C@H](O)COc3ccc(O)cc3)cc2)CC1")
"no"
>>> class_assignment("O=C(NCc1ccc(F)cc1)N1CCC(Oc2ccc(CCNC[C@H](O)COc3ccc(O)cc3)cc2)CC1")
"yes"
>>> class_assignment("Oc1ccc(OC[C@@H](O)CNCCc2ccc(NC3CCN(c4nc(-c5ccccc5)cs4)CC3)cc2)cc1")
"no"
>>> class_assignment("O=C(NCc1ccc(F)cc1)N1CCC(Nc2ccc(CCNC[C@H](O)COc3cccc(O)c3)cc2)CC1")
"yes"
>>> class_assignment("CCCCCCNC(=O)Nc1ccc(S(=O)(=O)N2CCC(Nc3ccc(CCNC[C@H](O)COc4ccc(O)cc4)cc3)CC2)cc1")
"yes"
>>> class_assignment("CCCCCCCCNC(=O)N1CCC(Nc2ccc(CCNC[C@H](O)c3ccc(O)c(NS(C)(=O)=O)c3)cc2)CC1")
"yes"
>>> class_assignment("CCCCCCCCNC(=O)N1CCC(Nc2ccc(CCNC[C@H](O)COc3ccc(O)cc3Cl)cc2)CC1")
"no"

Query :: Threshold query (pEC50 >= 7) on O=C(NCCCC1CCCCC1)N1CCC(Nc2ccc(CCNC[C@H](O)COc3ccc(O)cc3)cc2)CC1
Result :: yes

Query :: Threshold query (pEC50 >= 7) on CCCCCCCCNC(=O)N1CCC(C(=O)N2CCC(Nc3ccc(CCNC[C@H](O)COc4ccc(O)cc4)cc3)CC2)CC1
Result :: yes

Query :: Threshold query (pEC50 >= 7) on O=C(NCC1(c2ccccc2)CCCC1)N1CCC(Sc2ccc(CCNC[C@H](O)COc3ccc(O)cc3)cc2)CC1
Result :: no

Query :: Threshold query (pEC50 >= 7) on Cc1ccc(C(=O)CCNC(=O)N2CCC(Nc3ccc(CCNC[C@H](O)COc4ccc(O)cc4)cc3)CC2)cc1
Result :: yes
